Molecular target: T1, Pex13, P80667
T1 sequence (P80667 295-386, looked up): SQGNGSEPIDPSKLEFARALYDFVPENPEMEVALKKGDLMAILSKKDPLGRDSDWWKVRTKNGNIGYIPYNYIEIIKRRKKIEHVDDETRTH
Experiment: SPOT array
Settings: median of control spots 1341
test readout: SPOT intensity
The reply should be a number, written without any unit.

For orientation, consider the following solved cases.
{"binder": "VAPPPLPNRQLPNLD", "numeric result": 563}
{"binder": "RVRKTHVPASKRPSG", "numeric result": 0}
{"binder": "STKKPRPPVKSKPKH", "numeric result": 0}

Would you kindly share the measured SPOT intensity for TPEIPPPLPPKIMVH ? 321

Now this one: SKAKRPKFLLDLQIK 5

Now this one: LKHGWKPLRPIKLIS 17

Now this one: RNNRPVPPPPPMRTT 201
